Test system: HOP-92 NSCLC
Assay: NCI-60 one-dose screen, 48 h
Details: 10 µM unless noted
About 83,000 compounds went through this panel and 20% of them were active in at least one assay; those are over-represented in the sample as a whole. The source made the active and inactive calls. How the source made its calls: active means growth percent below 10; inactive means the rest.
Choose the fitting class; nothing outside active, inactive is accepted.

The examples below pair each entry with its known result.
O=C(NCCNc1nccc(-c2c(-c3cccc(O)c3)nc3sccn23)n1)c1cccc(C(F)(F)F)c1: inactive
O=C1C(Cl)=C(Nc2ccccc2)C(=O)C(Cl)=C1Nc1ccccc1: inactive
O=C(Nc1ccccc1Cl)c1c[nH]c(=O)c(-c2ccc(N3CCCOC4(CC4)C3)cc2)c1: inactive
O=C(NOC1OC(CO)C(O)C(O)C1O)Nc1ccccc1 (centres undefined): inactive
S=c1ssnc1-c1ccccn1: active
C=C1C(=O)O[C@H]2[C@H]1CC/C(COC(=O)OC/C1=C/CC[C@@]3(C)O[C@H]3[C@H]3OC(=O)[C@@H](CN(C)C)[C@@H]3CC1)=C\CC[C@@]1(C)O[C@@H]21: active
COc1cc(-c2nc3sc(C)cn3c2/C=C2\C(=O)Nc3ccccc32)c(Br)c(OC)c1OC: inactive
CCc1c2cc(Cl)ccc2n2cc(Cc3ccccc3)[nH]c(=O)c12: inactive
O=C(Cn1c2ccccc2c2ccncc21)N/N=C/c1c[nH]c2ccccc12: inactive
CS(=O)(=O)Nc1cccc(-c2ccc3ncnc(Nc4cncc(Cl)c4)c3c2)c1: inactive

Query :: Status in this test for O=C(Nc1ccc(-n2cc(-c3ccncc3)c(-c3ccc(O)c(Cl)c3)n2)cc1)c1ccc(Cl)c(C(F)(F)F)c1 ?
Result :: active

Query :: Status in this test for Cc1cccc(NCS(=O)(=O)O)c1 ?
Result :: inactive

Query :: Status in this test for COc1cc(NC(C)CCCN2C(=O)c3ccccc3C2=O)c2nccc(C)c2c1OC (centres undefined) ?
Result :: inactive

Query :: Status in this test for CO[C@H]1/C=C/C=C/C=C/C[C@H](OC(=O)[C@@H](C)NC(=O)C2CCCCC2)[C@H](C)[C@@H](O)/C(C)=C\CCC2=CC(=O)C=C(NC(=O)C1)C2=O ?
Result :: active

Query :: Status in this test for Cc1ccn2cc(Cc3cc(=O)oc4c3ccc3ccccc34)c(=O)nc2c1 ?
Result :: inactive

Query :: Status in this test for COc1cc(NS(=O)(=O)c2ccc(N)cc2)ncn1 ?
Result :: inactive
